assay: Thermogravimetric analysis (TGA) of mass loss on heating; type: physicochemical; conditions: TGA in air, rep 1; 30° C. to 600° C. at 5° C./min
quantity: Tpeak of mass loss (° C.) Air (rep 1) (°C)

[a] CC(C)[C@@H]1CC[C@@H](C)C[C@H]1C(=O)NCCc1ccccn1 [Evercool ® 190]
[b] CNC(=O)C(C)(C(C)C)C(C)C [WS-23, N,2,3-trimethyl-2-propan-2-ylbutanamide]
Problem: // max by Tpeak of mass loss (° C.) Air (rep 1) over [ a , b ] Write down the label attached to your selection.
Result: a

###

experiment: Thermogravimetric analysis (TGA) of mass loss on heating; assay type: physicochemical; conditions: TGA in nitrogen, rep 2; 30° C. to 600° C. at 5° C./min
quantity: Tpeak of mass loss (° C.) Nitrogen (rep 2) (°C)

- compound: "CC(C)[C@@H]1CC[C@@H](C)C[C@H]1OC(=O)CCC(=O)O [Monomenthyl succinate, (−)-menthyl succinate]"
  measurement_unit: "°C"
  endpoint_result: 151
- compound: "CCOC(=O)CNC(=O)[C@@H]1C[C@H](C)CC[C@H]1C(C)C"
  measurement_unit: "°C"
  endpoint_result: 158
- compound: "CC(C)[C@@H]1CC[C@@H](C)C[C@H]1C(=O)NCCc1ccccn1"
  measurement_unit: "°C"
  endpoint_result: 174
